Where do these numbers come from? They come from ChEMBL document CHEMBL4382210.

Assay: Elimination half life in BALB/C mouse at 25 mg/kg, po by LC/TSQ quantum access mass spectrometry
Type: ADME, organism-based
Conditions: in vivo, read-out: beta t1/2 (converted)
Readout: half-life (h)
Field: numeric (h). Do not append units.

Ask: Any idea what half-life was measured for O=c1cc(N2CCN(CC3CCCCC3)CC2)sc2c([N+](=O)[O-])cc(C(F)(F)F)cc12 ?
Reply: 7.25

----------
Molecular target: UniProt:P08684
Sequence (P08684 whole entry): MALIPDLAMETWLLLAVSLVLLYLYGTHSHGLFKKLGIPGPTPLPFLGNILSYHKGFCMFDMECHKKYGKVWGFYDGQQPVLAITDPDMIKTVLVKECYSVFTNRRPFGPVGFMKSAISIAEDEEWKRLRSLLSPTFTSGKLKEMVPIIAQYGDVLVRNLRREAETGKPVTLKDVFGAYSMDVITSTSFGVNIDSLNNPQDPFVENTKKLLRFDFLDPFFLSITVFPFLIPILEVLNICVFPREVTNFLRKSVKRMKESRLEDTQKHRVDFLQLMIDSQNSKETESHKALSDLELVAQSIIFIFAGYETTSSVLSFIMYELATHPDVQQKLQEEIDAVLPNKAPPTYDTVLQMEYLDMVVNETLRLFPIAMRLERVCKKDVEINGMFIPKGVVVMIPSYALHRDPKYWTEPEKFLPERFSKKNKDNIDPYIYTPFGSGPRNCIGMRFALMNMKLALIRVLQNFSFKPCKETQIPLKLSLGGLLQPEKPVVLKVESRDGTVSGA
Readout: IC50

Ask: Any idea what IC50 was measured for O=c1cc(N2CCN(CC3CCCCC3)CC2)sc2c([N+](=O)[O-])cc(C(F)(F)F)cc12 ?
Reply: > 50 µM

----------
Molecular target: Cytochrome P450 1A2 (Homo sapiens)
Sequence (P05177 whole entry): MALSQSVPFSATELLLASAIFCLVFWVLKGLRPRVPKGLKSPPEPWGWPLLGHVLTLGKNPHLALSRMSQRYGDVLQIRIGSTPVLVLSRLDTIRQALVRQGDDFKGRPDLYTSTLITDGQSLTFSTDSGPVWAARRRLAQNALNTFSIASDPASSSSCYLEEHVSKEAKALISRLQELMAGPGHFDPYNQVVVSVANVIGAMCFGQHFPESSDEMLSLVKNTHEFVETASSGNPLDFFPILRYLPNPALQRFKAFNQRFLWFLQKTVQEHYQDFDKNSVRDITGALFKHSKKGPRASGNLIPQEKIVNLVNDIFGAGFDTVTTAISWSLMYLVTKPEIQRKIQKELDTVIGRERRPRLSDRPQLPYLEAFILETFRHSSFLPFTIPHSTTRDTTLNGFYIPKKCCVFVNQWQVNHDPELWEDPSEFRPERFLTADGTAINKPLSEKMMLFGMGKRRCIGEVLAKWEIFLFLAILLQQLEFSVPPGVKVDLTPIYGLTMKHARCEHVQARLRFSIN
pIC50: −log10 of the molar value.
Readout: pIC50

Ask: Which measured pIC50 belongs to O=c1cc(N2CCN(CC3CCCCC3)CC2)sc2c([N+](=O)[O-])cc(C(F)(F)F)cc12 , tested on Cytochrome P450 1A2 (Homo sapiens)?
Reply: < 4.30

----------
Assay: Intrinsic clearance in CD-1 mouse hepatocytes assessed per million cells at 1 uM incubated up to 120 mins by LC-MS/MS analysis
Assay type: ADME, cell-based, Hepatocyte
Settings: read-out: CLH
Readout: hepatocyte CLint at 1 µM (µL/min/1e6 cells)
Field: numeric (µL/min/1e6 cells). Do not append units.

Ask: Any idea what hepatocyte CLint at 1 µM was measured for O=c1cc(N2CCN(CC3CCCCC3)CC2)sc2c([N+](=O)[O-])cc(C(F)(F)F)cc12 ?
Reply: 1.5

Ask: Would you mind doing O=c1nc(N2CCN(CC3CCCCC3)CC2)sc2c([N+](=O)[O-])cc(C(F)(F)F)cc12 [MACOZINONE] as well?
Reply: 4.2

----------
Here, each record is paired with measured IC50 data.
Assay: Inhibition of Mycobacterium tuberculosis DprE1 expressed in Escherichia coli BL21(DE3) by fluorescence based assay
Report field: quantity (unit follows the number).

Example compounds with recorded IC50:
Ask: Any idea what IC50 was measured for O=c1cc(N2CCN(Cc3ccccc3)CC2)sc2c([N+](=O)[O-])cc(C(F)(F)F)cc12 ?
Reply: 1330 nM

Ask: Would you mind doing O=c1nc(N2CCN(CC3CCCCC3)CC2)sc2c([N+](=O)[O-])cc(C(F)(F)F)cc12 [MACOZINONE] as well?
Reply: 200 nM

Ask: Would you mind doing CC1COC2(CCN(c3cc(=O)c4cc(C(F)(F)F)cc([N+](=O)[O-])c4s3)CC2)O1 (stereo not given) as well?
Reply: 630 nM

Ask: Would you mind doing O=c1cc(N2CCN(CC3CCCCC3)CC2)sc2c([N+](=O)[O-])cc(C(F)(F)F)cc12 as well?
Reply: 4530 nM

Read the next record carefully.
Ask: Any idea what IC50 was measured for C[C@H]1COC2(CCN(c3nc(=O)c4cc(C(F)(F)F)cc([N+](=O)[O-])c4s3)CC2)O1 [BTZ-043] ?
Reply: 1030 nM

----------
Assay: Metabolic stability in human liver microsomes assessed as parent compound remaining at 1 uM measured after 30 mins in presence of NADPH by LC-MS/MS analysis
Type: ADME, Microsome
Conditions: read-out: Stability
Here, each record is paired with measured remaining at 0.5 h, 1 µM data.
Field: numeric (%). Do not append units.

Example compounds with recorded remaining at 0.5 h, 1 µM:
Ask: Any idea what remaining at 0.5 h, 1 µM was measured for CN(Cc1ccccc1)c1cc(=O)c2cc(C(F)(F)F)cc([N+](=O)[O-])c2s1 ?
Reply: 11.6

Ask: Would you mind doing CC1CN(c2cc(=O)c3cc(C(F)(F)F)cc([N+](=O)[O-])c3s2)CCN1CC1CCCCC1 (centres undefined) as well?
Reply: 62.7

Ask: Would you mind doing CC1CN(c2cc(=O)c3cc(C(F)(F)F)cc([N+](=O)[O-])c3s2)CCN1Cc1ccccc1 (centres undefined) as well?
Reply: 76.7

Ask: Would you mind doing O=c1cc(N2CCN(CC3CCCCC3)CC2)sc2c([N+](=O)[O-])cc(C(F)(F)F)cc12 as well?
Reply: 66.7

Ask: Would you mind doing CC1COC2(CCN(c3cc(=O)c4cc(C(F)(F)F)cc([N+](=O)[O-])c4s3)CC2)O1 (centres undefined) as well?
Reply: 82.8

Ask: Would you mind doing CN(Cc1ccc2c(c1)OCCO2)c1cc(=O)c2cc(C(F)(F)F)cc([N+](=O)[O-])c2s1 as well?
Reply: 44.9

Ask: Would you mind doing O=c1cc(N2CCN(Cc3ccccc3)CC2)sc2c([N+](=O)[O-])cc(C(F)(F)F)cc12 as well?
Reply: 87.6

Ask: Would you mind doing O=C1CN(c2cc(=O)c3cc(C(F)(F)F)cc([N+](=O)[O-])c3s2)CCN1CC1CCCCC1 as well?
Reply: 86.6

More entries:
Ask: Any idea what remaining at 0.5 h, 1 µM was measured for O=c1nc(N2CCN(CC3CCCCC3)CC2)sc2c([N+](=O)[O-])cc(C(F)(F)F)cc12 ?
Reply: 58.7

----------
Assay: Oral bioavailability in BALB/C mouse at 25 mg/kg by LC/TSQ quantum access mass spectrometry
Assay type: ADME, organism-based
Conditions: in vivo
Readout: bioavailability (%)
Field: numeric (%). Do not append units.

Ask: Any idea what bioavailability was measured for O=c1cc(N2CCN(CC3CCCCC3)CC2)sc2c([N+](=O)[O-])cc(C(F)(F)F)cc12 ?
Reply: 13.1

----------
Here, each record is paired with measured half-life at 1 µM data.
Assay: Half life in CD-1 mouse hepatocytes assessed per million cells at 1 uM incubated up to 120 mins by LC-MS/MS analysis
Assay type: ADME, cell-based, Hepatocyte
Field: numeric (h). Do not append units.

Ask: Any idea what half-life at 1 µM was measured for O=c1cc(N2CCN(CC3CCCCC3)CC2)sc2c([N+](=O)[O-])cc(C(F)(F)F)cc12 ?
Reply: 7.7

Read the next record carefully.
Ask: Any idea what half-life at 1 µM was measured for O=c1nc(N2CCN(CC3CCCCC3)CC2)sc2c([N+](=O)[O-])cc(C(F)(F)F)cc12 [MACOZINONE] ?
Reply: 2.75

----------
Test: Intrinsic clearance in human hepatocytes assessed per million cells at 1 uM incubated up to 120 mins by LC-MS/MS analysis
Assay type: ADME, cell-based, Hepatocyte
Conditions: read-out: CLH
Here, each record is paired with measured hepatocyte CLint at 1 µM data.
Field: numeric (µL/min/1e6 cells). Do not append units.

Ask: Any idea what hepatocyte CLint at 1 µM was measured for O=c1cc(N2CCN(CC3CCCCC3)CC2)sc2c([N+](=O)[O-])cc(C(F)(F)F)cc12 ?
Reply: 3.1

Ask: Would you mind doing O=c1nc(N2CCN(CC3CCCCC3)CC2)sc2c([N+](=O)[O-])cc(C(F)(F)F)cc12 [MACOZINONE] as well?
Reply: 14.5

----------
Here, each record is paired with measured remaining at 0.5 h, 1 µM data.
Assay: Metabolic stability in CD-1 mouse liver microsomes assessed as parent compound remaining at 1 uM measured after 30 mins in presence of NADPH by LC-MS/MS analysis
Type: ADME, Microsome
Conditions: read-out: Stability
Field: numeric (%). Do not append units.

Example compounds with recorded remaining at 0.5 h, 1 µM:
Ask: Any idea what remaining at 0.5 h, 1 µM was measured for CN(Cc1ccccc1)c1cc(=O)c2cc(C(F)(F)F)cc([N+](=O)[O-])c2s1 ?
Reply: 13

Ask: Would you mind doing O=C1CN(c2cc(=O)c3cc(C(F)(F)F)cc([N+](=O)[O-])c3s2)CCN1CC1CCCCC1 as well?
Reply: 7.38

More entries:
Ask: Any idea what remaining at 0.5 h, 1 µM was measured for CN(Cc1ccc2c(c1)OCCO2)c1cc(=O)c2cc(C(F)(F)F)cc([N+](=O)[O-])c2s1 ?
Reply: 6.46

Ask: Would you mind doing O=c1nc(N2CCN(CC3CCCCC3)CC2)sc2c([N+](=O)[O-])cc(C(F)(F)F)cc12 [MACOZINONE] as well?
Reply: 63.9

----------
Assay: Elimination half life in BALB/C mouse at 10 mg/kg, iv by LC/TSQ quantum access mass spectrometry
Type: ADME, organism-based
Settings: in vivo, read-out: beta t1/2 (converted)
Readout: half-life
Report field: quantity (unit follows the number).

Ask: Any idea what half-life was measured for O=c1cc(N2CCN(CC3CCCCC3)CC2)sc2c([N+](=O)[O-])cc(C(F)(F)F)cc12 ?
Reply: 6.54 h

----------
Biological target: Voltage-gated inwardly rectifying potassium channel KCNH2 (Homo sapiens)
Sequence (Q12809 whole entry): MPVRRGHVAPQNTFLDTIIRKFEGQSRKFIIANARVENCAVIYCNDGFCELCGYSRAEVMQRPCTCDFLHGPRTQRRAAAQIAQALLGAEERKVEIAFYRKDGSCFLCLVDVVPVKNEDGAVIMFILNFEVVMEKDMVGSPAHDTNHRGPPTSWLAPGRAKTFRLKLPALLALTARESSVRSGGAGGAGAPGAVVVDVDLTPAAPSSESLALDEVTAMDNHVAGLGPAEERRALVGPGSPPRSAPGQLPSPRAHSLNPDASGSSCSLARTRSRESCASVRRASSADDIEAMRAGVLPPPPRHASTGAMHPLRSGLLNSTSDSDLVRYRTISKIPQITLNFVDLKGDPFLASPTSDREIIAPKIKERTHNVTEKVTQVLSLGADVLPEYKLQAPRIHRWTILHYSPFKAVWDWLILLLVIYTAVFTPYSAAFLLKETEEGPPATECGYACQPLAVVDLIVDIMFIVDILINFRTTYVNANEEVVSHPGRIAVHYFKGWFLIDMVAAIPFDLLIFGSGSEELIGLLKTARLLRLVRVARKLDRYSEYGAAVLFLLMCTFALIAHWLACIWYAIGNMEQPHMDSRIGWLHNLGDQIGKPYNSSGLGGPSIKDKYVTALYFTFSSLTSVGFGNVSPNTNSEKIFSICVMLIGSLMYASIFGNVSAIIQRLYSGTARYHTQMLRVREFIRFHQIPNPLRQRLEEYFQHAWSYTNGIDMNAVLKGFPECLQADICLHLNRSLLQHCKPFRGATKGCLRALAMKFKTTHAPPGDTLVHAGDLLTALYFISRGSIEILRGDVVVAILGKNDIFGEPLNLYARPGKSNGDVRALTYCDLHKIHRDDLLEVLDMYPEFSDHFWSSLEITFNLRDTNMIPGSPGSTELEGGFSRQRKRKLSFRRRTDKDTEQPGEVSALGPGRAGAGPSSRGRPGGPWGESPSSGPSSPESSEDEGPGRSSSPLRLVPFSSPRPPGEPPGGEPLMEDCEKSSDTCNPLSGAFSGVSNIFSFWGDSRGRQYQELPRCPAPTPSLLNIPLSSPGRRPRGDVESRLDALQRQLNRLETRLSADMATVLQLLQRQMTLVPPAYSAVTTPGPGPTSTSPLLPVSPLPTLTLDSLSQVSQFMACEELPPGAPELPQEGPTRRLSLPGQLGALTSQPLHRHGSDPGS
Assay: Inhibition of human ERG expressed in HEK293 cells by whole-cell patch clamp assay
pIC50: −log10 of the molar value.
Readout: pIC50

Ask: Any idea what pIC50 was measured for O=c1cc(N2CCN(CC3CCCCC3)CC2)sc2c([N+](=O)[O-])cc(C(F)(F)F)cc12 ?
Reply: < 4.52
